Data origin: patent US20220332795A1

Readings of log10(RLU) for the listed binders
- target.entity: human serum albumin (human) (UniProt P02768)
- Sequence (P02768 25-609 limits assumed): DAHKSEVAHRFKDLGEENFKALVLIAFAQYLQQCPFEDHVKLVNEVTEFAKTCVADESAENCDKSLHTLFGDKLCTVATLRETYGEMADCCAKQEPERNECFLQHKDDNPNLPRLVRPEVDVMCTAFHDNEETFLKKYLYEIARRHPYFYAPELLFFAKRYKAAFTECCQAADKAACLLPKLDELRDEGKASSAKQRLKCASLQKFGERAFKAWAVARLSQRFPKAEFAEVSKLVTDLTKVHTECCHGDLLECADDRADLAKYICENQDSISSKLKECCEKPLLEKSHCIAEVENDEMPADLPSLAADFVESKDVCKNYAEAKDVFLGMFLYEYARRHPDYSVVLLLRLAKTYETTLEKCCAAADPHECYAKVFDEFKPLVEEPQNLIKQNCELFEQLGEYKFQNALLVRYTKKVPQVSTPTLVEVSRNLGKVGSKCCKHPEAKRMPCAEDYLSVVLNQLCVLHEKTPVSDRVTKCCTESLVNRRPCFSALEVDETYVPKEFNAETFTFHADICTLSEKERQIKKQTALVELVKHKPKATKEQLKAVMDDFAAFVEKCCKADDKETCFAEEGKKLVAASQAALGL
- test.description: solution ELISA screen (luminescence)
property.name: log10(RLU) (log10 of the value in RLU)

binder	log10(RLU)
SEQ ID NO 252 (designed binder, not shown: small tags and cut ends) MLPAPKNLVVSRVTEDSARLSWTAPDAAFDSFYIAYAEPRPDGEAIVLHVPGSERSYDLTGLKPGTEYSVLIHGVKGGLLSSPLDAFFTT	4.86
SEQ ID NO 230 (designed binder, not shown: small tags and cut ends) MLPAPKNLVVSRVTEDSARLSWTAPDAAFDSFYIAYAEPRPDGEAIWLLVPGSERSYDLTGLKPGTEYSVLIHGVKGGLLSSPLVAFFTT	4.51
SEQ ID NO 224 (designed binder, not shown: small tags and cut ends) MLPAPKNLVVSRVTEDSARLSWTAPDAAFDSFYIAYAEPRPDGEAILLRVPGSERSYDLTGLKPGTEYSVLIHGVKGGLLSSPLVAEFTT	4.42
SEQ ID NO 246 (designed binder, not shown: small tags and cut ends) MLPAPKNLVVSRVTEDSARLSWTAPDAAFDSFYIAYAEPRPDGEAIQLHVPGSERSYDLTGLKPGTEYSVLIHGVKGGLLSSPLYAFFTT	4.41
SEQ ID NO 217 (designed binder, not shown: small tags and cut ends) MLPAPKNLVVSRVTEDSARLSWTAPDAAFDSFYIAYAEPRPDGEAIILEVPGSERSYDLTGLKPGTEYSVLIHGVKGGLLSSPLRAVFTT	4.21
SEQ ID NO 249 (designed binder, not shown: small tags and cut ends) MLPAPKNLVVSRVTEDSARLSWTAPDAAFDSFYIAYAEPRPDGEAIVLEVPGSERSYDLTGLKPGTEYSVLIHGVKGGLLSSPLHANFTT	4.38
SEQ ID NO 250 (designed binder, not shown: small tags and cut ends) MLPAPKNLVVSRVTEDSARLSWTAPDAAFDSFYIAYAEPRPDGEAILLRVPGSERSYDLTGLKPGTEYSVLIHGVKGGLLSSPLYAKFTT	4.68
SEQ ID NO 255 (designed binder, not shown: small tags and cut ends) MLPAPKNLVVSRVTEDSARLSWTAPDAAFDSFFIGYLEPQPPGEAILLFVPGSERSYDLTGLKPGTEYNVTIQGVKGGFPSTPLSASFTT	5.01
SEQ ID NO 240 (designed binder, not shown: small tags and cut ends) MLPAPKNLVVSRVTEDSARLSWTAPDAAFDSFYIAYAEPRPDGEAISLSVPGSERSYDLTGLKPGTEYSVLIHGVKGGLLSSPLHAKFTT	4.26
SEQ ID NO 210 (designed binder, not shown: small tags and cut ends) MLPAPKNLVVSRVTEDSARLSWTAPDAAFDSFFIGYLEPQPPGEAINLQVPGSERSYDLTGLKPGTEYNVTIQGVKGGFPSFPLSAVFTT	4.69
SEQ ID NO 233 (designed binder, not shown: small tags and cut ends) MLPAPKNLVVSRVTEDSARLSWTAPDAAFDSFYIAYAEPRPDGEAIQLFVPGSERSYDLTGLKPGTEYSVLIHGVKGGLLSSPLKAYFTT	4.34
SEQ ID NO 256 (designed binder, not shown: small tags and cut ends) MLPAPKNLVVSRVTEDSARLSWTAPDAAFDSFYIAYAEPRPDGEAIQLTVPGSERSYDLTGLKPGTEYSVLIHGVKGGLLSSPLHAYFTT	4.88
SEQ ID NO 215 (designed binder, not shown: small tags and cut ends) MLPAPKNLVVSRVTEDSARLSWTAPDAAFDSFYIAYAEPRPDGEAIVLWVPGSERSYDLTGLKPGTEYSVLIHGVKGGLLSSPLIAEFTT	4.35
SEQ ID NO 228 (designed binder, not shown: small tags and cut ends) MLPAPKNLVVSRVTEDSARLSWTAPDAAFDSFYIAYAEPRPDGEAIVLRVPGSERSYDLTGLKPGTEYSVLIHGVKGGLLSSPLAASFTT	4.47
SEQ ID NO 244 (designed binder, not shown: small tags and cut ends) MLPAPKNLVVSRVTEDSARLSWTAPDAAFDSFYIAYAEPRPDGEAISLQVPGSERSYDLTGLKPGTEYSVLIHGVKGGLLSSPLGAHFTT	4.26
SEQ ID NO 216 (designed binder, not shown: small tags and cut ends) MLPAPKNLVVSRVTEDSARLSWTAPDAAFDSFYIAYAEPRPDGEAISLSVPGSERSYDLTGLKPGTEYSVLIHGVKGGLLSSPPKFTT	5.28
SEQ ID NO 238 (designed binder, not shown: small tags and cut ends) MLPAPKNLVVSRVTEDSARLSWTTPDAAFDSFYIAYAEPRPDGEAIRLQVPGSERSYDLTGLKPGTEYSVLIHGVKGGLLSSPLGFTT	5.00
SEQ ID NO 251 (designed binder, not shown: small tags and cut ends) MLPAPKNLVVSRVTEDSARLSWTAPDAAFDSFFIGYLEPQPPGEAIGLWVPGSERSYDLTGLKPGTEYNVTIQGVKGGFPSDPLQAVFTT	4.42
